Test system: human ileum monolayer culture
METHOD DESCRIPTION: Sustained inhibition of apical acid secretion in human organoid monolayer cell cultures (ileum)
Type: cell-based
ASSAY CONTEXT: Homo sapiens, 48 h; 1 μM apical, dosed day 6, apical media pH day 8, vs DMSO
Form field: inhibition at 1 µM (one value per entry).

{"COMPOUND": "O=C(NCCCCNC(=O)NCCOCCOCCNS(=O)(=O)c1ccc(O[C@H]2c3cc(Cl)cc(Cl)c3C[C@@H]2N2CCNCC2)cc1)NCCOCCOCCNS(=O)(=O)c1ccc(O[C@H]2c3cc(Cl)cc(Cl)c3C[C@@H]2N2CCNCC2)cc1", "inhibition at 1 µM": "> 70%"}
{"COMPOUND": "Cc1cc(S(=O)(=O)NCCOCCOCCNC(=O)NCCCCNC(=O)NCCOCCOCCNS(=O)(=O)c2ccc(O[C@H]3c4cc(Cl)cc(Cl)c4C[C@@H]3N3CCC[C@@H](N(C)C)C3)c(C)c2)ccc1O[C@H]1c2cc(Cl)cc(Cl)c2C[C@@H]1N1CCC[C@@H](N(C)C)C1", "inhibition at 1 µM": "50 to 70%"}
{"COMPOUND": "N#Cc1cc(Cl)cc2c1C[C@H](N1CCNCC1)[C@H]2Oc1ccc(S(=O)(=O)NCCOCCOCCNC(=O)NCCCCNC(=O)NCCOCCOCCNS(=O)(=O)c2ccc(O[C@H]3c4cc(Cl)cc(C#N)c4C[C@@H]3N3CCNCC3)cc2)cc1", "inhibition at 1 µM": "50 to 70%"}
{"COMPOUND": "Cc1cc(S(=O)(=O)N[C@@H]2CCN(CCOCCNC(=O)NCCCCNC(=O)NCCOCCN3CC[C@@H](NS(=O)(=O)c4ccc(O[C@H]5c6cc(Cl)cc(C#N)c6C[C@@H]5N(C)C)c(C)c4)C3)C2)ccc1O[C@H]1c2cc(Cl)cc(C#N)c2C[C@@H]1N(C)C", "inhibition at 1 µM": "< 50%"}
{"COMPOUND": "CN(C)[C@H]1CCCN([C@H]2Cc3c(C#N)cc(Cl)cc3[C@@H]2Oc2ccc(S(=O)(=O)NCCOCCOCCNC(=O)NCCCCNC(=O)NCCOCCOCCNS(=O)(=O)c3ccc(O[C@H]4c5cc(Cl)cc(C#N)c5C[C@@H]4N4CCC[C@H](N(C)C)C4)cc3)cc2)C1", "inhibition at 1 µM": "> 70%"}
{"COMPOUND": "N#Cc1cc(Cl)cc2c1C[C@H](N1CCNCC1)[C@H]2Oc1ccc(S(=O)(=O)NC2CCN(C(=O)CCCNC(=O)NCCCCNC(=O)NCCCC(=O)N3CCC(NS(=O)(=O)c4ccc(O[C@H]5c6cc(Cl)cc(C#N)c6C[C@@H]5N5CCNCC5)cc4)CC3)CC2)cc1", "inhibition at 1 µM": "> 70%"}
{"COMPOUND": "Cc1cc(S(=O)(=O)NCCOCCOCCNC(=O)NCCCCNC(=O)NCCOCCOCCNS(=O)(=O)c2ccc(O[C@H]3c4cc(Cl)cc(Cl)c4C[C@@H]3N3CCNCC3)c(C)c2)ccc1O[C@H]1c2cc(Cl)cc(Cl)c2C[C@@H]1N1CCNCC1", "inhibition at 1 µM": "> 70%"}

Input: Form field: inhibition at 1 µM recorded for O=C(NCCCCNC(=O)NCCOCCN1CC[C@H](NS(=O)(=O)c2ccc(O[C@H]3c4cc(Cl)cc(Cl)c4C[C@@H]3N3CCNCC3)c(F)c2)C1)NCCOCCN1CC[C@H](NS(=O)(=O)c2ccc(O[C@H]3c4cc(Cl)cc(Cl)c4C[C@@H]3N3CCNCC3)c(F)c2)C1 [Example 106, (trifluoroacetate)] with human ileum monolayer culture (enter value)
Output: > 70%
